Test system: Schaalia odontolytica
Assay: Antimicrobial activity against Actinomyces odontolyticus under anaerobic conditions after 44 hrs by CLSI-M11-47 protocol based agar dilution method
Format: functional
MIC90 listing for selected molecules.

Worked examples follow.
CCC[C@@H]1C[C@@H](C(=O)N[C@@H]([C@H]2O[C@H](SC)[C@H](O)[C@@H](O)[C@H]2O)[C@H](C)Cl)N(C)C1
128 µg/mL
CO/N=C(\C(=O)N[C@@H]1C(=O)N2C(C(=O)O)=C(CSc3nc(=O)c(O)nn3C)CS[C@H]12)c1csc(N)n1
0.5 µg/mL
CCO/N=C(\C(=O)N[C@@H]1C(=O)N2C(C(=O)[O-])=C(Sc3nc(-c4cc[n+](C)cc4)cs3)CS[C@H]12)c1nsc(NP(=O)(O)O)n1
0.25 µg/mL

Turning to the following molecule.
Q. Given the molecule Cc1ncc([N+](=O)[O-])n1CCO , what is its reported MIC90?
A. > 32 µg/mL

----------
Test system: Finegoldia magna
Test: Antimicrobial activity against Finegoldia magna under anaerobic conditions after 44 hrs by CLSI-M11-47 protocol based agar dilution method
Assay type: functional
MIC50 listing for selected compounds.
Record the value in µg/mL, omitting the unit from your answer.

CCO/N=C(\C(=O)N[C@@H]1C(=O)N2C(C(=O)[O-])=C(Sc3nc(-c4cc[n+](C)cc4)cs3)CS[C@H]12)c1nsc(NP(=O)(O)O)n1
0.25
CO/N=C(\C(=O)N[C@@H]1C(=O)N2C(C(=O)O)=C(CSc3nc(=O)c(O)nn3C)CS[C@H]12)c1csc(N)n1
4
Cc1ncc([N+](=O)[O-])n1CCO
0.5

Q. Given the compound CCC[C@@H]1C[C@@H](C(=O)N[C@@H]([C@H]2O[C@H](SC)[C@H](O)[C@@H](O)[C@H]2O)[C@H](C)Cl)N(C)C1 , what is its reported MIC50?
A. 2

----------
MIC50 listing for selected compounds.
Tested on: Anaerococcus prevotii
Test: Antimicrobial activity against Anaerococcus prevotii under anaerobic conditions after 44 hrs by CLSI-M11-47 protocol based agar dilution method
Assay type: functional

CCO/N=C(\C(=O)N[C@@H]1C(=O)N2C(C(=O)[O-])=C(Sc3nc(-c4cc[n+](C)cc4)cs3)CS[C@H]12)c1nsc(NP(=O)(O)O)n1
0.03 µg/mL

Q. Given the compound Cc1ncc([N+](=O)[O-])n1CCO , what is its reported MIC50?
A. 1 µg/mL

Q. Another compound: CCC[C@@H]1C[C@@H](C(=O)N[C@@H]([C@H]2O[C@H](SC)[C@H](O)[C@@H](O)[C@H]2O)[C@H](C)Cl)N(C)C1
A. 0.5 µg/mL

Q. Another compound: CO/N=C(\C(=O)N[C@@H]1C(=O)N2C(C(=O)O)=C(CSc3nc(=O)c(O)nn3C)CS[C@H]12)c1csc(N)n1
A. 0.25 µg/mL

----------
Test system: Peptostreptococcus stomatis
Test: Antimicrobial activity against Peptostreptococcus stomatis under anaerobic conditions after 44 hrs by CLSI-M11-47 protocol based agar dilution method
Assay type: functional
MIC50 listing for selected compounds.
Record the value in µg/mL, omitting the unit from your answer.

Worked examples follow.
Cc1ncc([N+](=O)[O-])n1CCO [METRONIDAZOLE]
0.5
CO/N=C(\C(=O)N[C@@H]1C(=O)N2C(C(=O)O)=C(CSc3nc(=O)c(O)nn3C)CS[C@H]12)c1csc(N)n1 [CEFTRIAXONE]
2

Q. Given the compound CCO/N=C(\C(=O)N[C@@H]1C(=O)N2C(C(=O)[O-])=C(Sc3nc(-c4cc[n+](C)cc4)cs3)CS[C@H]12)c1nsc(NP(=O)(O)O)n1 [CEFTAROLINE FOSAMIL] , what is its reported MIC50?
A. 0.5
